Target: human CXCR3 (N-delta 4) (Homo sapiens)
Construct: CD8 leader (N); Flag tag (N); expressed in transfected cells; host or cells: mouse pro-B Ba/F3 cells, stably transfected with pME18Sneo-hCXCR3 (N-delta 4); membrane preparation
Assay: Human CXCR3 (N-delta 4) Scintillation Proximity Assay (SPA), [125I] IP-10 binding
Details: IC50 rating; Ba/F3-hCXCR3 (N-delta 4) membranes, 25 pM [125I] IP-10; read-out: IC50
pIC50: −log10 of the molar value.
pIC50 listing for selected compounds.

Ask: I have this compound here, CC[C@H]1CN(c2nc(N)c(-c3nnc(C4CC4)o3)nc2Cl)CCN1C1CCN(C(=O)c2ccc(Cl)nc2N)CC1 [Compound 52] , and I need its recorded pIC50.
Reply: > 7.60

Ask: I have this compound here, CC[C@H]1CN(c2ncc(-c3nnc(N)o3)nc2C)[C@H](C)CN1C1CCN([C@H](C(=O)OC)c2ccc(Cl)cc2)CC1 [Compound 170] , and I need its recorded pIC50.
Reply: 7.00 to 7.60

Ask: I have this compound here, CC[C@H]1CN(c2ncc(-c3n[nH]c(N)n3)nc2C)CCN1C1CCN(C(=O)c2ccc(Cl)nc2N)CC1 [Compound 44] , and I need its recorded pIC50.
Reply: > 7.60

Ask: I have this compound here, CCNc1nnc(-c2cnc(N3C[C@H](CC)N(C4CCN(Cc5ccc(O)cc5)CC4)C[C@H]3C)c(C)n2)o1 [Compound 136] , and I need its recorded pIC50.
Reply: > 7.60

###

Target: human CXCR3 (N-delta 4) (Homo sapiens, UniProt P49682)
Construct: CD8 leader (N); Flag tag (N); expressed in transfected cells; host or cells: mouse pro-B Ba/F3 cells, stably transfected with pME18Sneo-hCXCR3 (N-delta 4); membrane preparation
Sequence (P49682 5-368 limits assumed): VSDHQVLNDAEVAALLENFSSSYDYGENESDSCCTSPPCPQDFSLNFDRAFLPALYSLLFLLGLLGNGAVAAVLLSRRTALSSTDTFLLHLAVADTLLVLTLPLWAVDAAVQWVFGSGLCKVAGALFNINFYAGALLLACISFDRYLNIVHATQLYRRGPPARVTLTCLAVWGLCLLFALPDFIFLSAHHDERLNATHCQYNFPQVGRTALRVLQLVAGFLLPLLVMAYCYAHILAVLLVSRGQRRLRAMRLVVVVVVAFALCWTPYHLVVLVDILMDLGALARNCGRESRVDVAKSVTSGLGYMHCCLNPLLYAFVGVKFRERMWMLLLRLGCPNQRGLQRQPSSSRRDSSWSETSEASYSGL
Test: Human CXCR3 (N-delta 4) Scintillation Proximity Assay (SPA), [125I] IP-10 binding
Details: IC50 rating; Ba/F3-hCXCR3 (N-delta 4) membranes, 25 pM [125I] IP-10; read-out: IC50
pIC50: −log10 of the molar value.
measureName: pIC50

Ask: I have this compound here, CC[C@H]1CN(c2nc(N)c(-c3nnc(NC)o3)nc2Cl)CCN1C1CCN(C(C(=O)OC)c2ccc(Cl)cc2)CC1 (stereo partly shown) , and I need its recorded pIC50.
Reply: > 7.60

Ask: I have this compound here, CCNc1nnc(-c2cnc(N3CCN(C4CCN(C(=O)c5ccc(C(F)(F)F)nc5N)CC4)[C@@H](CC)C3)c(C)n2)o1 , and I need its recorded pIC50.
Reply: > 7.60

Ask: I have this compound here, CC[C@H]1CN(c2nc(N)c(-c3nnc(C)o3)nc2Cl)CCN1C1CCN([C@H](C(=O)OC)c2ccc(Cl)cc2)CC1 , and I need its recorded pIC50.
Reply: < 7.00

Ask: I have this compound here, CCNc1nnc(-c2cnc(N3CCN(C4CCN(Cc5ccc(C)cc5)CC4)[C@@H](CC)C3)c(C)n2)o1 , and I need its recorded pIC50.
Reply: > 7.60

Ask: I have this compound here, CCNc1nnc(-c2cnc(N3C[C@H](CC)N(C4CCN(Cc5ccc(Cl)cc5O)CC4)C[C@H]3C)c(C)n2)o1 , and I need its recorded pIC50.
Reply: > 7.60

Ask: I have this compound here, CCNc1nnc(-c2cnc(N3CCN(C4CCN(C(=O)c5ccc(Cl)nc5N)CC4)[C@@H](CC)C3)c(Cl)n2)s1 , and I need its recorded pIC50.
Reply: > 7.60

---
Ask: I have this compound here, CCNc1nnc(-c2cnc(N3CCN(C4CCN(C(=O)c5ccc(Cl)cc5)CC4)[C@@H](CC)C3)c(CC)n2)o1 , and I need its recorded pIC50.
Reply: > 7.60

Ask: I have this compound here, CC[C@H]1CN(c2nc(N)c(-c3nnc(CO)o3)nc2Cl)CCN1C1CCN(Cc2ccc(Cl)cc2/C(N)=N\O)CC1 , and I need its recorded pIC50.
Reply: > 7.60

Ask: I have this compound here, CC[C@H]1CN(c2ncc(-c3nnc(N)o3)nc2C)[C@H](C)CN1C1CCN(Cc2ccc(Cl)cc2)CC1 , and I need its recorded pIC50.
Reply: > 7.60

Ask: I have this compound here, CCNc1nnc(-c2nc(Cl)c(N3CCN(C4CCN(C(=O)c5ccc(Cl)cc5)CC4)[C@@H](CC)C3)nc2N)o1 , and I need its recorded pIC50.
Reply: > 7.60

Ask: I have this compound here, CC[C@H]1CN(c2ncc(-c3nc[nH]n3)nc2C)CCN1C1CCN(C(=O)c2ccc(C)c(F)c2)CC1 , and I need its recorded pIC50.
Reply: > 7.60

Ask: I have this compound here, CCNc1nnc(-c2nc(C)c(N3CCN(C4CCN(C(=O)c5ccc(Cl)nc5N)CC4)[C@@H](CC)C3)nc2N)o1 , and I need its recorded pIC50.
Reply: > 7.60

Ask: I have this compound here, CC[C@H]1CN(c2nc(N)c(-c3nnc(C)o3)nc2Cl)CCN1C1CCN([C@@H](CO)c2ccc(Cl)cc2)CC1 , and I need its recorded pIC50.
Reply: > 7.60

Ask: I have this compound here, CCNc1nnc(-c2cnc(N3CCN(C4CCN(C(=O)c5ccc(CC)nc5N)CC4)[C@@H](CC)C3)c(C)n2)o1 , and I need its recorded pIC50.
Reply: 7.00 to 7.60

Ask: I have this compound here, CC[C@H]1CN(c2ncc(-c3nnc(C)o3)nc2Cl)CCN1C1CCN(C(=O)c2ccc(Cl)nc2N)CC1 , and I need its recorded pIC50.
Reply: > 7.60

Ask: I have this compound here, CCNc1nnc(-c2cnc(N3CCN(C4CCN(C(=O)c5ccc(CC)cc5)CC4)[C@@H](CC)C3)c(C)n2)o1 , and I need its recorded pIC50.
Reply: 7.00 to 7.60

Ask: I have this compound here, CC[C@H]1CN(c2ncc(-c3ncc[nH]3)nc2C)CCN1C1CCN(Cc2ccc(F)c(F)c2)CC1 , and I need its recorded pIC50.
Reply: > 7.60

Ask: I have this compound here, CC[C@H]1CN(c2nc(N)c(-c3nnc(C)o3)nc2Cl)CCN1C1CCN(C(=O)c2cc(F)c(N)nc2Cl)CC1 , and I need its recorded pIC50.
Reply: < 7.00

Ask: I have this compound here, CC[C@H]1CN(c2ncc(-c3nnc(NC4(C)CC4)o3)nc2C)[C@H](C)CN1C1CCN(C(=O)c2ccc(Cl)cc2)CC1 , and I need its recorded pIC50.
Reply: > 7.60

Ask: I have this compound here, CC[C@H]1CN(c2nc(N)c(C3=NCCN3)nc2Cl)CCN1C1CCN(C(=O)c2ccc(Cl)nc2N)CC1 , and I need its recorded pIC50.
Reply: > 7.60

Ask: I have this compound here, CCNc1nnc(-c2cnc(N3CCN(C4CCN(C(=O)c5ccc(Cl)nc5N)CC4)[C@@H](CC)C3)c(Cl)n2)o1 , and I need its recorded pIC50.
Reply: > 7.60

Ask: I have this compound here, CCNc1nnc(-c2cnc(N3C[C@H](CC)N(C4CCN(C(=O)c5ccc(O)cc5)CC4)C[C@H]3C)c(C)n2)o1 , and I need its recorded pIC50.
Reply: 7.00 to 7.60

Ask: I have this compound here, CC[C@H]1CN(c2nc(N)c(-c3nnc(C)o3)nc2Cl)CCN1C1CCN(Cc2ccc(Cl)cc2-c2nnn[nH]2)CC1 , and I need its recorded pIC50.
Reply: > 7.60

Ask: I have this compound here, CCO/C=N\c1nc(N2CCN(C3CCN(Cc4ccc(Cl)cc4)CC3)[C@@H](CC)C2)c(Cl)nc1-c1nnco1 , and I need its recorded pIC50.
Reply: > 7.60

Ask: I have this compound here, CC[C@H]1CN(c2ncc(-c3nnc(NC)o3)nc2C)[C@H](C)CN1C1CCN(C(=O)c2ccc(Cl)nc2N)CC1 , and I need its recorded pIC50.
Reply: > 7.60

Ask: I have this compound here, CC[C@H]1CN(c2ncc(-c3nnc(NC)o3)nc2C)[C@H](C)CN1C1CCN(C(=O)c2ccc(Cl)cc2)CC1 , and I need its recorded pIC50.
Reply: > 7.60

Ask: I have this compound here, CC[C@H]1CN(c2ncc(-c3nnc(C(C)C)[nH]3)nc2C)CCN1C1CCN(C(=O)c2ccc(Cl)cc2)CC1 , and I need its recorded pIC50.
Reply: 7.00 to 7.60

Ask: I have this compound here, CC[C@H]1CN(c2nc(N)c(-c3nnc(CNC(=O)C(F)(F)F)o3)nc2Cl)CCN1C1CCN(C(=O)c2ccc(Cl)nc2N)CC1 , and I need its recorded pIC50.
Reply: > 7.60
